TESTED ON: CRF1R; further: reference of the scale not given here
TEST NAME: cell-based or functional assay
Ends that are not written are not given here.
Classify: yes (1) when CRF1R Emax % is strictly less than 20%; no (0) when CRF1R Emax % is not.

{"columns": ["BINDER", "LABEL"],
 "data": [
  ["IVLSLDVPIGLLQILLEQARHAHAHAHAHAQAHILAHV-NH2 [SEQ ID NO 369]", "yes (1)"],
  ["NDDPPISIDLPLHLLRNMIEMARIENEREQAGLNAKYLAEV-NH2 [SEQ ID NO 259]", "no (0)"],
  ["ZGPPISIDLPFQLLREVIEIEKQEKEKQQAANNALLLATI (C-terminal amide) [SEQ ID NO 359]", "no (0)"],
  ["DNPSLSIDLPLLLLRTLLELEKTQSQRERAEQNAEIFAEV-NH2 [SEQ ID NO 323]", "no (0)"],
  ["DNPSLSIDLPLILLRTLLELEKTQSQRERAEQNARIFARV-NH2 [SEQ ID NO 335]", "no (0)"],
  ["ZGPPISIDLPQFLLRKMIEIEKQEKEKQQAANNRLLLDTI (C-terminal amide) [SEQ ID NO 221]", "no (0)"],
  ["ZGPPISIDLPFQLLRKMIEIEKQEKEKQQAANNALLLDTI (C-terminal amide) [SEQ ID NO 251]", "no (0)"],
  ["ZGPPISIDLPFFLLRKVIEIEKQEKEKQQAANNALLLATI (C-terminal amide) [SEQ ID NO 317]", "no (0)"],
  ["ZGPPISIDLPFWLLRKMIEIEKQEKEKQQAANNRLLLDTI (C-terminal amide) [SEQ ID NO 217]", "no (0)"],
  ["ZGPPISIDLPFQLLRKVIEIEKQEKEKQQAANNARLLDTI (C-terminal amide) [SEQ ID NO 278]", "no (0)"],
  ["ZGPPISIDVPIYLLRKVIEIEKQEKEKQQAANNARLLARI (C-terminal amide) [SEQ ID NO 379]", "yes (1)"],
  ["NDDPPISIDLPLYLLRNMIEMARIENEREQAGLNAKYLAEV-NH2 [SEQ ID NO 271]", "no (0)"],
  ["ZGPPISIDLPYYLLRKMIEIEKQEKEKQQAANNALLLDTI (C-terminal amide) [SEQ ID NO 226]", "no (0)"],
  ["ZGPPISIDLPFQLLRKVIEIEKQEKEKQQAANNALLLDTI (C-terminal amide) [SEQ ID NO 350]", "no (0)"],
  ["ZGPPISIDVPYHLLRKVIEIEKQEKEKQQAANNARLLARI (C-terminal amide) [SEQ ID NO 377]", "no (0)"],
  ["DNPSLSIDVPLLLLRTLLELEKTQSQRERAEQNARIFARV-NH2 [SEQ ID NO 384]", "no (0)"],
  ["ZGPPISIDLPFQLLRKLIEIEKQEKEKQQAANNALLLATI (C-terminal amide) [SEQ ID NO 357]", "no (0)"],
  ["NDDPPISIDLPLLLLRNMIEMARIENEREQAGLNAKYLAEV-NH2 [SEQ ID NO 268]", "yes (1)"],
  ["DNPSLSIDLPLILLRTLLELEKTQSQRERAEQNAIIFASV-NH2 [SEQ ID NO 345]", "yes (1)"],
  ["NDDPPISIDLPTYLLRNMIEMARIENEREQAGLNAKYLAEV-NH2 [SEQ ID NO 266]", "yes (1)"],
  ["ZGPPISIDLPHFLLRKMIEIEKQEKEKQQAANNRLLLDTI (C-terminal amide) [SEQ ID NO 219]", "no (0)"],
  ["ZGPPISIDLPFQLLRKVIEIEKQEKEKQQATTNARLLDRV (C-terminal amide) [SEQ ID NO 351]", "no (0)"],
  ["IVLSLDVPIGLLQILLEQARHAAAHAAAHAQAHILAHV-NH2 [SEQ ID NO 367]", "yes (1)"]
]}
